Measured values drawn from PubChem BioAssay for this set.

experiment: growth effects on S. cerevisiae YJM789 – YJM789 clinical isolate, OD600, 24 h, basal, primary screen (AID 1089); settings: called active from +8 up or from −8 down;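 further: growth of clinical yeast isolate S. cerevisiae YJM 789 seeded 1000 cells per well; test concentration not given here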
Calls of active or inactive are those of the source.
Outcome codes: class 1 (active), class 0 (inactive)

molecularString	label
COC(=O)[C@@]1(Cc2ccccc2)[C@H]2c3cc(C(=O)N(C)C)n(Cc4ccc(OC)c(OC)c4)c3C[C@H]2CN1C(=O)c1ccccc1	class 0
O=C1O[C@@H](c2ccccc2)[C@@H](c2ccccc2)N2[C@@H](c3ccccc3OCCO)[C@]3(C(=O)Nc4ccc(C#CC5(O)CCCCCC5)cc43)[C@@H](C(=O)N3CCN(c4ncccn4)CC3)[C@H]12	class 0
COC(=O)[C@]1(CCC(=O)OC(C)(C)C)N=C(c2ccc(OCCCO)cc2)O[C@@H]1c1ccccc1	class 0
Cc1ccc(S[C@]2(C(=O)O)CC(=O)N(Cc3ccccc3C(F)(F)F)[C@@H]2c2ccc(CO)cc2I)cc1	class 0
C=C[C@H](C)[C@@H](OC(=O)Nc1ccc(SC)cc1)c1ccc(O)c2ccccc12	class 1
COCCOC(=O)N1C(=O)[C@@]2(c3cc(C#CC4=CCCCC4)ccc31)[C@H](c1ccc(OCCO)cc1)N1[C@H](c3ccccc3)[C@H](c3ccccc3)OC(=O)[C@H]1[C@@H]2C(=O)N1CCc2cc(OC)c(OC)cc2C1	class 0
C#CCNCc1ccccc1	class 0

----------
Catalogue of z-score values
test: blockers of DNA damage checkpoint Chk1 activation – imaging, HeLa, hydroxyurea, phospho-Chk1 nuclear intensity, primary screen (AID 1187); conditions: hydroxyurea-induced phospho-Chk1 immunofluorescence imaging, higher = more signal; further: test concentration not given here

compound	z-score
O=C1C2C=CC(C(O)c3cc(C(F)(F)F)cc(C(F)(F)F)c3)N(Nc3ccccc3)C2C(=O)N1c1ccccc1 (stereo not drawn)	-0.017
CN(C)CCCCCCNC(=O)[C@@H]1C[C@@H]2C(=O)N[C@@H](CCCC[N+](C)(C)C)C(=O)N2[C@@H]1c1ccc(O)cc1	0.0464
COc1ccc(C(O)C2C=CC3C(=O)N(C)C(=O)C3N2N(c2ccccc2)c2ccccc2)c2ccccc12 (stereo not drawn)	0.15
CCN(CC)c1ccc(N2CC=CC34O[C@@H]5/C=C\CCC(C)OC(=O)C5[C@H]3C(=O)N(CCCCCO)[C@@H]4C2=O)cc1 (stereo partly drawn)	0.673
[N-]=[N+]=NCc1ccccc1C[C@@]1(C(=O)NCC(O)CO)N=C(c2ccc(OCCCO)cc2)O[C@@H]1c1ccccc1 (stereo partly drawn)	0.274
COc1ccccc1CN1C(=O)c2ccccc2[C@@]2(Cc3ccccc3N(CCCN(C)C)C2=O)[C@@H]1c1ccc(CO)cc1	-0.454
CCOC(=O)C1=CC[C@H]2C(=O)N(c3ccccc3)C(=O)[C@@H]12	-0.177
[N-]=[N+]=Nc1ccccc1C[C@]1(C(=O)N2CCCCC2)COC(c2ccc(OCCCO)cc2)=N1	-0.232

----------
tested on: Lefty1; test: Lefty1 protein binding to printed compounds – biochemical, small-molecule microarray, 635/667 nm fluorescence, primary screen (AID 1139); details: fluorescence 635/667, higher = more signal
readout: composite z-score

compound	measuredResult
CCCC1(C(=O)OC)C=C2C(=C(c3ccccc3)C(=O)C2C)CN1 (stereo not drawn)	0.0496
NC(=O)[C@@H]1[C@H]2C(=O)O[C@H](c3ccccc3)[C@H](c3ccccc3)N2[C@H](c2ccc(O)cc2)[C@@]12C(=O)Nc1ccc(C#CC3=CCCCC3)cc12	0.847
CCOC(=O)C1=C[C@@H](C(C)C)N(S(=O)(=O)c2ccc(C)cc2)[C@H]1c1ccccc1F	0.187
C=CC[C@]1(C(N)=O)N=C(c2ccc(OCCCO)cc2)O[C@H]1c1ccccc1	-0.664
CCOC(=O)C[C@H]1[C@H](OC(=O)c2ccc(C(=O)c3ccccc3)cc2)[C@@H](NC(=O)Cc2ccc(OC)cc2)c2cc(OCCCO)ccc2N1C(=O)c1ccc2ccccc2n1	0.735
O=C1C2C=CC(C(O)c3cc(C(F)(F)F)cc(C(F)(F)F)c3)N(Nc3ccccc3)C2C(=O)N1c1ccccc1 (stereo not drawn)	0.192
O=C(CS)NCCCCCNC(=O)[C@H]1C[C@H]2C(=O)NCC(=O)N2[C@H]1c1ccc(O)cc1	0.0911
OCC1C=C(/C=C/c2ccccc2)CN1Cc1ccccc1Br (stereo not drawn)	1.51

----------
assay: hepatitis C replication reporter changes, two-sided – Huh7 cells, luciferase reporter, HCV replication inhibitor project, primary screen (AID 1109); details: Huh7 HCV replicon luciferase reporter, 48 h; higher = more signal;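 further: huh7 hepatoma cells harbouring a luciferase neomycin HCV replicon reporter; luciferase luminescence as measure of HCV replicon replication; test concentration not given here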

compound	z-score
COCCCNC(=O)[C@@]1(CCS(=O)(=O)c2ccccc2)N=C(c2ccc(OCCCO)cc2)O[C@H]1c1ccccc1N=[N+]=[N-]	-1.6
C=CCC(OC(C)=O)[C@@H]1[C@@H](N(Cc2ccc(-c3cccc(C(F)(F)F)c3)o2)C(=O)Cc2ccc(OC)cc2)c2cc(OCCCO)ccc2N1C(=O)c1ccc2ccccc2c1 (some centres not stated)	0.613
NC(=O)[C@@H]1[C@H]2C(=O)O[C@H](c3ccccc3)[C@H](c3ccccc3)N2[C@H](c2ccc(OCCO)cc2)[C@@]12C(=O)Nc1ccc(C#CC3=CCCCC3)cc12	-3.2
[N-]=[N+]=NCc1ccccc1C[C@@]1(C(=O)NCC(O)CO)N=C(c2ccc(OCCCO)cc2)O[C@@H]1c1ccccc1 (some centres not stated)	-1.41
CCOC(=O)C1=CC[C@@H](c2ccc(C(F)(F)F)cc2)N(S(=O)(=O)c2ccc(C)cc2)[C@H]1c1ccccc1	-1.1
O=C1C2C=CC(C(O)C=Cc3ccc([N+](=O)[O-])cc3)N(Nc3ccccc3F)C2C(=O)N1c1ccccc1 (configuration not stated)	-0.969
O=C1OCC=C[C@H]2OC34C=CCN(Cn5nnc6ccccc65)C(=O)[C@H]3N(CCCCCO)C(=O)[C@@H]4[C@@H]12 (some centres not stated)	-0.0996

----------
target: Calmodulin-1 (Homo sapiens) (UniProt P0DP23); experiment: small molecules binding Ca-loaded calmodulin-1 – biochemical, small-molecule microarray, Cy5-labelled CALM1, plus calcium, artefact control for SMM control-protein annotation, profiling panel (AID 1112); settings: Cy5-CALM1 binding fluorescence, higher = more signal;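 further: score merges spot fluorescence with signal to noise from triplicate slides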
Catalogue of composite z-score values

compound	composite z-score
O=C1OCCC=C[C@H]2OC34C=CCN(Cn5nnc6ccccc65)C(=O)[C@H]3N(CCO)C(=O)[C@@H]4C12 (stereo partly specified)	0.262
C#CCNCc1ccccc1	-0.163
COc1ccc([Si](C)(C)[C@H]2[C@H](CC(=O)N3CCC[C@H]3CO)O[C@@]3(C(=O)N(Cc4cccc(N5CCOC5=O)c4)c4ccccc43)[C@@H]2C)cc1	-0.834
O=C1OCC=C[C@H]2OC34C=CCN(Cn5nnc6ccccc65)C(=O)[C@H]3N(CCCCCO)C(=O)[C@@H]4[C@@H]12 (stereo partly specified)	0.0598
O=C1O[C@@H](c2ccccc2)[C@@H](c2ccccc2)N2[C@@H](c3ccccc3OCCO)[C@]3(C(=O)Nc4ccc(C#CC5(O)CCCCCC5)cc43)[C@@H](C(=O)N3CCN(c4ncccn4)CC3)[C@H]12	0.671
Cc1ccc(S[C@]2(C(=O)O)CC(=O)N(C(C)C)[C@@H]2c2ccc(CO)cc2)cc1	-0.529
NC(=O)NCC#Cc1ccc2c(c1)[C@]1(C(=O)N2)[C@H](C(=O)O)[C@H]2C(=O)O[C@H](c3ccccc3)[C@H](c3ccccc3)N2[C@@H]1c1ccc(O)cc1	0.717
CC(C)[Si](C#C[Si](C(C)C)(C(C)C)C(C)C)(O[C@H](C)c1cn(Cc2ccccc2)nn1)C(C)C	0.142
[N-]=[N+]=NCc1ccccc1C[C@@]1(C(=O)NCC(O)CO)N=C(c2ccc(OCCCO)cc2)O[C@@H]1c1ccccc1 (stereo partly specified)	1.25
CN1CCC(CCCO)=CC1c1cccs1 (stereo unspecified)	-0.431
CCOC(=O)C1=CC[C@H]2C(=O)N(c3ccccc3)C(=O)[C@@H]12	-0.513
OCCCC1=CC(C2CC2)N(Cc2cccc(OC(F)(F)F)c2)CC1 (stereo unspecified)	0.115
CCOC(=O)C1=CC[C@@H](c2ccccc2)N(S(=O)(=O)c2ccc(C)cc2)[C@H]1c1ccc(CC)cc1	0.511
CCCCCCc1nc(-c2ccc(-c3ccc(Cl)c(Cl)c3)o2)c(C)c2c1[Si](C(C)C)(C(C)C)OC2	0.45
O=C1O[C@@H](c2ccccc2)[C@@H](c2ccccc2)N2[C@@H](c3ccccc3OCCO)[C@]3(C(=O)Nc4ccccc43)[C@@H](C(=O)O)[C@H]12	-0.842
C=CC[C@]1(C(N)=O)COC(c2ccc(OCCCO)cc2)=N1	-0.296

----------
test: COS7 lysate on small-molecule microarray, probe aHis, 635 nm (AID 1123); conditions: COS7 cell lysate, fluorescence, higher = more signal;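 further: z-score combines 667nm fluorescence intensity with signal-to-noise per printed compound spot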
Answer 0 if composite z-score is under 1, and 1 if it is 1 or more.

compound	label
CCCNC(=O)[C@@]1(Sc2ccc(C)cc2)CC(=O)N(Cc2ccccc2C(F)(F)F)[C@@H]1c1ccc(CO)cc1I	1
COC(=O)C[C@H]1O[C@@H](CCc2ccccc2)[C@@H](C)[C@@H]1[Si](C)(C)c1ccc(OC)cc1	0
[N-]=[N+]=NCc1ccccc1C[C@@]1(C(=O)NCC(O)CO)N=C(c2ccc(OCCCO)cc2)O[C@@H]1c1ccccc1 (stereo partly drawn)	1
C=CCNC(=O)[C@H]1[C@@H]2C(=O)O[C@@H](c3ccccc3)[C@@H](c3ccccc3)N2[C@@H](c2ccc(OCCO)cc2)[C@]12C(=O)Nc1ccc(C#CCC(C(=O)OC)C(=O)OC)cc12	1
COc1ccc(C#Cc2ccc3c(c2)[C@]2(C(=O)N3)[C@H](c3ccc(O)cc3)N3[C@H](c4ccccc4)[C@H](c4ccccc4)OC(=O)[C@H]3[C@@H]2C(=O)N2CCc3cc(OC)c(OC)cc3C2)cc1	1
C=CCNC(=O)[C@@H]1[C@H]2C(=O)O[C@H](c3ccccc3)[C@H](c3ccccc3)N2[C@H](c2ccc(OCCO)cc2)[C@@]12C(=O)N(C(=O)OCCOC)c1ccc(C#CCC(C(=O)OC)C(=O)OC)cc12	1
CC(C)NC(=O)[C@@H]1c2ccccc2C(=O)N(C(C)C)[C@H]1c1ccc(CO)cc1	1
CCCNC(=O)[C@@H]1c2ccccc2C(=O)N(Cc2ccccc2OC)[C@H]1c1ccc(CO)cc1	1
[N-]=[N+]=Nc1ccccc1C[C@@]1(C(=O)N2CCCCC2)N=C(c2ccc(OCCCO)cc2)O[C@@H]1c1ccccc1N=[N+]=[N-]	1
CCCCC(=C=CC[C@H](O)c1cccc(OCCO)c1)C[C@H](O)c1ccccn1	0
NCCCCCNC(=O)[C@H]1C[C@H]2C(=O)N3CCC[C@H]3C(=O)N2[C@H]1c1ccc(O)cc1	0
COCCOC(=O)N1C(=O)[C@@]2(c3ccccc31)[C@H](c1ccc(OCCO)cc1)N1[C@H](c3ccccc3)[C@H](c3ccccc3)OC(=O)[C@H]1[C@@H]2C(=O)N1CCc2cc(OC)c(OC)cc2C1	1
CCCCC(=C=CC[C@@H](O)c1ccc(CO)o1)CCO	0
C=CC[C@]1(C(=O)N2CCOCC2)N=C(c2ccc(OCCCO)cc2)O[C@H]1c1ccccc1N=[N+]=[N-]	1
C=CCN1Cc2ccccc2[C@@H]2OC(c3ccc(OCCCO)cc3)=N[C@]2(CCS(=O)(=O)c2ccccc2)C1=O	1
CC(=O)NCCCC[C@@H]1NC(=O)[C@H]2C[C@@H](C(=O)NCCCCCNC(=O)CS)[C@@H](c3ccc(O)cc3)N2C1=O	1
C[N+](C)(C)CCCCCCNC(=O)[C@H]1C[C@H]2C(=O)N[C@@H](Cc3ccccc3)C(=O)N2[C@H]1c1cccc(OCCO)c1	1
C=CCNC(=O)[C@H]1[C@@H]2C(=O)O[C@@H](c3ccccc3)[C@@H](c3ccccc3)N2[C@@H](c2ccc(O)cc2)[C@]12C(=O)Nc1ccc(C#CCCO)cc12	0
C=CC[C@]1(C(=O)NCc2ccccc2)N=C(c2ccc(OCCCO)cc2)O[C@H]1c1ccccc1CN=[N+]=[N-]	0
O=C1C2C=CC(C(O)C=Cc3ccc([N+](=O)[O-])cc3)N(n3cnnc3)C2C(=O)N1Cc1ccccc1 (stereo not drawn)	1
COc1ccc(NC(=O)O[C@H]2[C@H](OC(=O)c3cc4ccccc4[nH]3)[C@@H](OC(=O)c3cc4ccccc4[nH]3)[C@@H](OC)O[C@@H]2CO)cc1	1
O=C(CS)NCCCCCNC(=O)[C@H]1C[C@H]2C(=O)NCC(=O)N2[C@H]1c1ccc(O)cc1	0
CCOC(=O)C1=CC[C@@H](c2ccccc2)N(S(=O)(=O)c2ccc(C)cc2)[C@H]1c1ccc(CC)cc1	1
NC(=O)NCC#Cc1ccc2c(c1)[C@]1(C(=O)N2)[C@H](C(=O)O)[C@H]2C(=O)O[C@H](c3ccccc3)[C@H](c3ccccc3)N2[C@@H]1c1ccc(O)cc1	0
CCCCN1CC=CC23O[C@@H]4C=CCOC(=O)[C@@H]4[C@H]2C(=O)N(CCCCCCO)[C@@H]3C1=O (stereo partly drawn)	0
CCCC[C@H]1C[C@@H]1[C@@H]1N(P(=O)(c2ccccc2)c2ccccc2)C[C@@](O)(c2ccccc2)CC12CC2	1
O=C1O[C@@H](c2ccccc2)[C@@H](c2ccccc2)N2[C@@H](c3ccccc3OCCO)[C@]3(C(=O)Nc4ccccc43)[C@@H](C(=O)O)[C@H]12	1
